pEC50 reference
# Test system: MCF-7 breast carcinoma
# measurementNotes: Cytotoxicity assay (monolayer), MCF-7;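 also: cells treated 72 h with 6-8 compound doses versus DMSO vehicle controls, EC50 fitted by 4-parameter dose-response curves, averaged across all tests and lots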
# Assay type: cell-based
# conditionsUsed: MCF7, ML (monolayer); read-out: MCF7 (EC50 Ave) ML
pEC50: −log10 of the molar value. Primed or numbered codes have the meaning given here. * marks the point of attachment. 10Ca = carbamate linkage conjugating the peptide-PEG to paclitaxel at C10; 10Ca‑PXL = paclitaxel conjugated at C10 via a carbamate; 10Ca‑PXL″ = paclitaxel attached at C10 via carbamate; 3Am‑VBL = vinblastine (VBL) conjugate; 3Am‑VBL″ = vinblastine conjugate; 3′Alk‑MAL(9) = not defined here; PEG(13)″ = PEG(13) linker; PEG(11) = PEG(11) linker; DMAB = not defined here; PEG(11)″ = PEG11 linker; 3Am = not defined here; Cbz = O=C(OCc1ccccc1)*; PEG(13) = PEG13 linker; Boc = CC(C)(C)OC(=O)*; Piv = CC(C)(C)C(=O)*; OBn = c1ccc(CO*)cc1; DOX = doxorubicin; VBL = vinblastine; PXL = paclitaxel
readoutName: pEC50

- substance: "Ac-YIFGSFK-PEG(11)-3Am-VBL (N-acetyl; PEG(11) linker; vinblastine conjugate)"
  obsValue: "< 7.00"
- substance: "Ac-EYIyGSFK-PEG(13)-10Ca-PXL (EYIYGSFK; not fully specified)"
  obsValue: "< 7.00"
- substance: "CBz-RPRTSSF-PEG(13)-10Ca-PXL x (N-CBz; PEG(13) linker; paclitaxel conjugate; salt)"
  obsValue: "< 7.00"
- substance: "CH3O(CH2CH2O)3CH2CH2(C═O)YIYGSFS-PEG(11)-3Am-VBL (N-methoxy-PEG acyl; PEG(11); vinblastine conjugate)"
  obsValue: "< 7.00"
- substance: "Pv-GRPRTSSFAE(DMAB)G-3Am-VBL (Piv-GRPRTSSFAE(DMAB)G-{3Am‑VBL″}; not fully specified; reading uncertain)"
  obsValue: "< 7.00"
- substance: "BOC-E(Bzl)YIFGSFK(BOC)-PEG(11)-3Am-VBL"
  obsValue: "7.00 to 7.70"
- substance: "BOC-YI(phospho)YGSFK(BOC)-PEG(11)-3Am-VBL (Boc-YIYGSFK(Boc)-{PEG(11)-3Am-VBL}; reading uncertain; also: phospho at I2 as written: I(phospho), printed as BOC-YI(phospho)YGSFK(BOC)-PEG(11)-3Am-VBL)"
  obsValue: "< 7.00"
- substance: "Ac-YIFGSFK(BOC)-PEG(11)-3Am-VBL (Ac-YIFGSFK(Boc)-{PEG(11)″-3Am-VBL}; reading uncertain; also: printed as Ac-YIFGSFK(BOC)-PEG(11)-3Am-VBL)"
  obsValue: "< 7.00"
- substance: "Pv-YIYGSFR-PEG(11)-3Am-VBL (Piv-YIYGSFR-{PEG(11)-3Am‑VBL})"
  obsValue: "< 7.00"
- substance: "CBz-GRPRTSSFAEG-3Am-VBL (Cbz-GRPRTSSFAEG-{3Am-VBL}; reading uncertain; also: printed as CBz-GRPRTSSFAEG-3Am-VBL)"
  obsValue: "< 7.00"
- substance: "CBz-E(Bzl)YIFGSFK-PEG(11)-3Am-VBL (CBz-Glu(Bzl) N-terminal; PEG(11); vinblastine conjugate)"
  obsValue: "< 7.00"
- substance: "CH3O(CH2CH2O)3CH2CH2(C═)YIYGSFH-PEG(11)-3Am-VBL (N-methoxy-PEG acyl; PEG(11); vinblastine conjugate)"
  obsValue: "< 7.00"
- substance: "Ac-YIYGSFR-PEG(13)-10Ca-PXL (N-acetyl; PEG(13) linker; paclitaxel conjugate)"
  obsValue: "< 7.00"
- substance: "Pv-GRPRAAAFAEG-PEG(13)-10Ca-PXL (Piv-GRPRAAAFAEG-{PEG(13)-10Ca‑PXL}; also: 2 TFA salt)"
  obsValue: "< 7.00"
- substance: "Pv-YIFGSFR-PEG(13)-10Ca-PXL (Piv-YIFGSFR-{PEG(13)″-10Ca‑PXL}; also: TFA salt)"
  obsValue: "< 7.00"
- substance: "Pv-GRPRTSSFAE(Bzl)G-PEG(13)-10Ca-PXL (Piv-GRPRTSSFAE(OBn)G-{PEG(13)-10Ca‑PXL″})"
  obsValue: "< 7.00"
- substance: "CBz-YIYGSFK(BOC)-PEG(11)-3Am-VBL (Cbz-YIYGSFK(Boc)-{PEG(11)-3Am-VBL}; reading uncertain; also: printed as CBz-YIYGSFK(BOC)-PEG(11)-3Am-VBL)"
  obsValue: "< 7.00"
- substance: "CBz-RPRTSSF-PEG(11)-3Am-VBL (N-CBz; PEG(11) linker; vinblastine conjugate)"
  obsValue: "> 7.70"
- substance: "BOC-RPRTSSF-PEG(11)-3Am-VBL (N-BOC; PEG(11) linker; vinblastine conjugate)"
  obsValue: "7.00 to 7.70"
- substance: "Pv-EYIYGSFR-PEG(11)-3Am-VBL (Piv-EYIYGSFR-{PEG(11)-3Am‑VBL})"
  obsValue: "< 7.00"
- substance: "Ac-EYIYGSFK-3′Alk-MAL(9)-DOX (Ac-EYIYGSFK-{3′Alk‑MAL(9)-DOX}; reading uncertain; also: printed as Ac-EYIYGSFK-3′Alk-MAL(9)-DOX)"
  obsValue: "< 7.00"
- substance: "Ac-GRPRTSSFAEG-3Am-VBL (Ac-GRPRTSSFAEG-{3Am-VBL}; reading uncertain; also: TFA salt, printed as Ac-GRPRTSSFAEG-3Am-VBL)"
  obsValue: "7.00 to 7.70"
- substance: "Ac-EYIYGSFR-PEG(13)-10Ca-PXL (N-acetyl, PEG13, paclitaxel conjugate)"
  obsValue: "< 7.00"
- substance: "Ac-EYIFGSFK-PEG(13)-10Ca-PXL (N-acetyl, PEG13, paclitaxel conjugate)"
  obsValue: "< 7.00"
- substance: "Ac-EYIYGSFK(CBz)-PEG(13)-10Ca-PXL (Ac-EYIYGSFK(Cbz)-{PEG(13)-10Ca-PXL})"
  obsValue: "< 7.00"
- substance: "BOC-YIYGSFK(BOC)-PEG(11)-3Am-VBL (N-BOC; BOC side chain; PEG(11); vinblastine conjugate)"
  obsValue: "7.00 to 7.70"
- substance: "Ac-YIYGSFH-PEG(11)-3Am-VBL (N-acetyl; PEG(11) linker; vinblastine conjugate)"
  obsValue: "< 7.00"
